Entry source: ChEMBL document CHEMBL1133688

- Species: Homo sapiens
- PROCEDURE SUMMARY: Inhibition of LPS-induced TNF-alpha secretion in human whole blood
- Format: functional

- SMILES DATA: "[N-]=[N+]=Nc1cccc(-c2cc(Cn3cnc(I)c3)cc3cccnc23)c1"
  DISPLAY UNIT: "nM"
  IC50: 2000

---

- TESTED TARGET: 3',5'-cyclic-AMP phosphodiesterase 4A (Homo sapiens)
- Sequence (P27815 whole entry): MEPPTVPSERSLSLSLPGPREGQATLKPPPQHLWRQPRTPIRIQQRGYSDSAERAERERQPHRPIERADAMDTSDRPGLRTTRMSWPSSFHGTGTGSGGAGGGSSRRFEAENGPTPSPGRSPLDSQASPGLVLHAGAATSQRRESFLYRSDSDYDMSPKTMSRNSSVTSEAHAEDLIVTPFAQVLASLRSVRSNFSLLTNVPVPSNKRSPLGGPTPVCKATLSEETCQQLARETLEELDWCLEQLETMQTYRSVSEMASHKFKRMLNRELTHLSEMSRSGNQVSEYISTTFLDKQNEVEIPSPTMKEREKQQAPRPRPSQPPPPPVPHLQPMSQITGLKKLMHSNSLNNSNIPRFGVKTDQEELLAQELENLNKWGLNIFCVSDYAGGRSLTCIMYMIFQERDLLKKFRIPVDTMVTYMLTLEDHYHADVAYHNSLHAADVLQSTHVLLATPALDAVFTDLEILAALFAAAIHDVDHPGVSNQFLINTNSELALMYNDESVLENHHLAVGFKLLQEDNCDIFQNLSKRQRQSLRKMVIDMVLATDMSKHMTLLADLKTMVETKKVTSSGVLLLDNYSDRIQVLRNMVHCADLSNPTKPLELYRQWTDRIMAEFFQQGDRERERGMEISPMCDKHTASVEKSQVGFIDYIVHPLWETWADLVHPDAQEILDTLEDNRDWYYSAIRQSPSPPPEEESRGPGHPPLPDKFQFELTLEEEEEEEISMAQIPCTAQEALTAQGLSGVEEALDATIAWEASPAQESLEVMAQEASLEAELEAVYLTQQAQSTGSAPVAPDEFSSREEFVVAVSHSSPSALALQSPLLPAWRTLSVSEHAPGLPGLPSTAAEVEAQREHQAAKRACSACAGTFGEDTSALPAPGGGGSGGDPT
- PROCEDURE SUMMARY: Inhibition of recombinant human PDE4A expressed in Sf9 cells

- MOLECULE: "c1ccc(-c2cc(Cn3ccnc3)cc3cccnc23)cc1"
  DISPLAY UNIT: "nM"
  IC50: 9
- MOLECULE: "O=[N+]([O-])c1cccc(-c2cc(Cc3ccncc3)cc3cccnc23)c1"
  DISPLAY UNIT: "nM"
  IC50: 0.07
- MOLECULE: "O=c1c2c(ncn2Cc2ccccc2)c2cccnc2n1-c1ccccc1"
  DISPLAY UNIT: "nM"
  IC50: 0.6
- MOLECULE: "[N-]=[N+]=Nc1cc(-c2cccc(I)c2)c2ncccc2c1"
  DISPLAY UNIT: "nM"
  IC50: 28
- MOLECULE: "O=C(c1ccccc1)c1cc(-c2cccc(I)c2)c2ncccc2c1"
  DISPLAY UNIT: "nM"
  IC50: 15
- MOLECULE: "[N-]=[N+]=Nc1cccc(-c2cc(Cc3ccncc3)cc3cccnc23)c1"
  DISPLAY UNIT: "nM"
  IC50: 0.2
- MOLECULE: "[N-]=[N+]=Nc1cccc(-c2cc(Cn3cnc(I)c3)cc3cccnc23)c1"
  DISPLAY UNIT: "nM"
  IC50: 0.4
- MOLECULE: "[N-]=[N+]=Nc1ccc(I)c(-c2cc(Cc3ccncc3)cc3cccnc23)c1"
  DISPLAY UNIT: "nM"
  IC50: 3.3
- MOLECULE: "COc1ccc(C2CC(=O)N(Cc3cc(I)cc(C4(C(F)(F)F)N=N4)c3)C2)cc1OC1CCCC1 (stereo unspecified)"
  DISPLAY UNIT: "nM"
  IC50: 35
- MOLECULE: "[N-]=[N+]=Nc1cccc(-c2cc(I)cc3cccnc23)c1"
  DISPLAY UNIT: "nM"
  IC50: 2.7
- MOLECULE: "O=c1c2c(ncn2Cc2cc(I)cc(C3(C(F)(F)F)N=N3)c2)c2cccnc2n1-c1ccccc1"
  DISPLAY UNIT: "nM"
  IC50: 250
